- System: NCI-H522 lung
- experiment.summary: NCI-60 one-dose screen, 48 h
- cond: 10 µM unless noted
The panel holds about 83,000 compounds, 20% with a hit somewhere; the sample as a whole holds those more often. Activity calls are given as the source filed them. The calls were made as follows: active = growth percent below 10; inactive = the rest.
Outcome codes: t = active, f = inactive

* O=C(O)c1cccc2cccc(-c3c4ccc(=O)c(O)c-4oc4c(O)c(O)ccc34)c12 | f
* c1ccc(-c2cc3cc4ccccc4cn3c2)cc1 | f
* O=C(Nc1ccc(Cl)c(Cl)c1)OCc1ccco1 | t
* O=C1/C(=C/c2ccccc2)CCC/C1=C\c1ccccc1 | f
* CN(C)c1ccc(/C=C/c2ccnc3ccccc23)cc1 | t
* O=C1C=CC(=O)c2c(O)c(CO)c(CO)c(O)c21 | f
* CC(=O)N1CC(=O)NC1=S | f
* COC(=O)C(=[N+]=[N-])C(=O)c1ccc([N+](=O)[O-])o1 | t
* c1ccc2sc(SSN3CC4CCC(CC4)C3)nc2c1 | f
* CC(/C=N/NC(N)=S)Cc1ccc(C(C)C)cc1 (centres undefined) | t
* COc1ccc2c(c1OC)OCC(CN(C)C)C2=O (centres undefined) | t
* Cc1oc2c(C)c3oc(=O)cc(C)c3cc2c1CCl | f
* O=C1C=CC(=O)N1c1ccccc1 | t
* C[C@@]1(CO)[C@H](O)CC[C@@]2(C)[C@H]1CC[C@H]1C[C@@H]3C[C@@]12CC[C@@]3(O)COC(=O)CN | f
* CC(C)(C)CC(C)(C)c1ccc(OCCOCCSC(=N)N)cc1 | t
* O=C1/C(=C/c2ccccn2)CCc2ccccc21 | f
* N#CC1c2ccccc2C=CN1C(=O)CCCl (centres undefined) | t
* COC1CC(C)C(OC)c2cc(O)cc(c2O)NC(=O)/C(C)=C/C=C\C(C)C(OC(N)=O)/C(C)=C\C(C)C1OC (centres undefined) | t
* O=C(/C=C/c1ccccc1)c1ccccc1O | f
* CC(C)(C)c1ccc(O)c(Br)c1 | f
* CCN1/C(=C/C(C)=C/c2sc3ccc4ccccc4c3[n+]2CC)Sc2ccc3ccccc3c21 | t
* CCOC(=O)NC(/C=C/c1ccccc1)NC(=O)OCC | f
* CCCCC(CCc1ccc([N+](=O)[O-])cc1)(C(C)=O)C(=O)OCC (centres undefined) | f
* Cc1ccccc1N=C(N)Nc1ccccc1C (tested in a mixture with another compound) | t
* O=[N+]([O-])c1ccc([I+]c2ccccc2)cc1 | t
* O=C(/C=C/C(Cl)(Cl)Cl)Nc1ccc(Cl)cc1 | t
* Nc1ccc(Oc2ccccc2)c(Cl)c1 | f
* CCCCCCCCCCCC[n+]1ccc2ccccc2c1 | t
* CC1=CC(=NC(=O)CBr)C=C/C1=N\S(=O)(=O)c1ccccc1 | t
* CC(=O)c1ccc2c(c1)CCc1ccccc1-2 | f
* O/N=C1\c2ccccc2-c2ccc(F)cc21 | f
* Clc1ccccc1C(c1ccccc1)(c1ccccc1)n1ccnc1 | f
* Cc1ccc(N2C(=O)C=CC2=O)cc1 | f
* Cc1nc(Sc2nc3ccc([N+](=O)[O-])cc3s2)sc1C | t
* CCN(CC)CC(O)CNc1ccc(NCC2CO2)c2c1C(=O)c1ccccc1C2=O (centres undefined) | t
* O=C1CSC(=S)N1Cc1cccnc1 | f
* CCCOS(=O)(=O)c1ccccc1 | f
* CCCCCCCCCCCCCCCc1ccc(C(=O)C[n+]2ccccc2)cc1 | t
* OC(CSc1ccccc1)CN1CCN(c2ccc(Cl)cc2)CC1 (centres undefined) | f
